Data provenance is PubChem BioAssay (EPA / NIEHS).

Read-out: CD40, CD40 (gene 958)
Method Notes: BSK_LPS_CD40: BioMAP Diversity Plus: LPS Assay for CD40 Biomarker Activity (AID 2283076)
Measurement Context: primary human HUVEC with PBMC; actives raise or lower the signal
The source made the active and inactive calls. The calls were made as follows: active = hit-call score of the fitted dose curve at least 0.9, where 1 is the maximum; inactive = score below 0.9.

- Compound: "N#CC(Br)Br"
  AC50: "inactive"
- Compound: "ClC1=C(Cl)[C@]2(Cl)[C@H]3[C@H]([C@@H]4C=C[C@H]3C4)[C@@]1(Cl)C2(Cl)Cl"
  AC50: "32.1 µM (active)"
- Compound: "COC(=O)c1ccccc1N"
  AC50: "inactive"
- Compound: "CC(C)(C)OOC(C)(C)CCC(C)(C)OOC(C)(C)C"
  AC50: "inactive"
- Compound: "Cc1ccc(N)cc1"
  AC50: "inactive"
- Compound: "Cc1ccc(N)c(N)c1"
  AC50: "inactive"
- Compound: "Brc1ccc(Oc2ccccc2)cc1"
  AC50: "inactive"
- Compound: "[O-][Cl+]O"
  AC50: "inactive"
- Compound: "O=C1CCCO1"
  AC50: "inactive"
- Compound: "Clc1ccc(Cl)c(Cl)c1"
  AC50: "inactive"
- Compound: "C[C@]12C=CC3=C4CCC(=O)C=C4CC[C@H]3[C@@H]1CC[C@@H]2O"
  AC50: "20 µM (active)"
- Compound: "CCCCCCCCn1sccc1=O"
  AC50: "5.76 µM (active)"
- Compound: "O=[N+]([O-])c1ccc(Oc2ccc(Cl)cc2Cl)cc1"
  AC50: "20 µM (active)"
- Compound: "Nc1ccc(Cl)cc1N"
  AC50: "inactive"
- Compound: "CC(C)(C)OOC(=O)c1ccccc1"
  AC50: "inactive"
- Compound: "CCOC(=O)[C@]1(c2ccccc2)Oc2ccccc2[C@@H]1N"
  AC50: "32.9 µM (active)"
- Compound: "CN(C)[C@@H]1C(=O)C(C(N)=O)=C(O)[C@@]2(O)C(=O)C3=C(O)c4c(O)cccc4[C@@](C)(O)[C@H]3C[C@@H]12"
  AC50: "inactive"
- Compound: "Oc1ccc2ccc3cccc4ccc1c2c34"
  AC50: "20 µM (active)"
- Compound: "CCCCCCCCCCCCCN1CC(C)OC(C)C1 (stereo unspecified)"
  AC50: "inactive"
- Compound: "CCN(CC)CCO"
  AC50: "inactive"
- Compound: "CC(C)(OOC(C)(C)c1ccccc1)c1ccccc1"
  AC50: "34.6 µM (active)"
- Compound: "CC(C)(C)C(O)(CCc1ccc(Cl)cc1)Cn1cncn1 (stereo unspecified)"
  AC50: "inactive"
- Compound: "C[N+](C)(C)CC1CO1 (stereo unspecified)"
  AC50: "inactive"
- Compound: "CC(C)(O)c1cnn2c(-c3ccc(F)c(-c4c(F)cccc4C#N)c3)cnc2n1"
  AC50: "inactive"
- Compound: "CC(C)COC(=O)c1ccccc1C(=O)OCC(C)C"
  AC50: "inactive"
- Compound: "c1ccc(NNc2ccccc2)cc1"
  AC50: "inactive"

====

Read-out: Monocyte Chemoattractant Protein-1 (MCP1), CCL2 (gene 6347)
Method Notes: BSK_4H_MCP1: BioMAP Diversity Plus: 4H Assay for Monocyte Chemoattractant Protein-1 (MCP1) Biomarker Activity (AID 2283018)
Measurement Context: primary human endothelial cells (HUVEC); actives raise or lower the signal
Active and inactive are the calls of the source. How the source made its calls: active means hit-call score of the fitted dose curve at least 0.9, where 1 is the maximum; inactive means score below 0.9.
Outcome codes: true (1) = active, false (0) = inactive

- Structure: "CCC12COCN1COC2"
  Group Label: "false (0)"
- Structure: "c1ccc2c(c1)-c1cccc3cccc-2c13"
  Group Label: "false (0)"
- Structure: "CC(C)COC(=O)c1ccccc1C(=O)OCC(C)C"
  Group Label: "true (1)"

====

Read-out: CYP2C9 (gene 1559)
Method Notes: LTEA_HepaRG_CYP2C9: Life Technologies and Expression Analysis (LTEA) Assay for CYP2C9 using HepaRG (AID 2283484)
Measurement Context: mRNA level, 48 h; actives raise or lower the signal
Calls of active or inactive are those of the source. How the source made its calls: active means hit-call score of the fitted dose curve at least 0.9, where 1 is the maximum; inactive means score below 0.9.
Outcome codes: active, inactive

- Compound: "c1ccc(NNc2ccccc2)cc1"
  Group Label: "inactive"
- Compound: "CCN(CC)CCO"
  Group Label: "inactive"
- Compound: "c1ccc(C2CO2)cc1 (stereo not drawn)"
  Group Label: "inactive"
- Compound: "[O-][Cl+]O"
  Group Label: "inactive"
- Compound: "CC(C)(C)C(O)(CCc1ccc(Cl)cc1)Cn1cncn1 (stereo not drawn)"
  Group Label: "active"
- Compound: "CN(C)C(=O)Nc1ccc(Cl)cc1"
  Group Label: "inactive"
- Compound: "N#CC(Br)(Br)C(N)=O"
  Group Label: "inactive"
- Compound: "CN(C)c1ccc(C(=O)c2ccc(N(C)C)cc2)cc1"
  Group Label: "inactive"
- Compound: "O=C(Oc1ccc(Br)cc1)N1CCN2CCC1CC2"
  Group Label: "inactive"
- Compound: "COP(=S)(OC)SCN1C(=O)c2ccccc2C1=O"
  Group Label: "inactive"
- Compound: "CCOc1cccc(C2(N3CCN(c4ccccc4)CC3)CCC(C)CC2)c1 (stereo not drawn)"
  Group Label: "inactive"
- Compound: "ClCCOCCCl"
  Group Label: "inactive"
- Compound: "O=C(O)C1C2CCC(O2)C1C(=O)O (stereo not drawn)"
  Group Label: "active"
- Compound: "CCOC(=O)[C@]1(c2ccccc2)Oc2ccccc2[C@@H]1N"
  Group Label: "active"
- Compound: "Cc1ccc(N)cc1"
  Group Label: "inactive"
- Compound: "[Cl-].[Cl-].[Hg+2]"
  Group Label: "inactive"
- Compound: "COC(=O)c1ccccc1N"
  Group Label: "inactive"
- Compound: "Clc1ccc(Cl)c(Cl)c1"
  Group Label: "inactive"

====

Read-out: Phosphatase and tensin (PTEN), PTEN (gene 5728)
Method Notes: LTEA_HepaRG_PTEN: Life Technologies and Expression Analysis (LTEA) Assay for Phosphatase and tensin (PTEN) using HepaRG (AID 2283523)
Measurement Context: mRNA level, 48 h; actives raise or lower the signal
The source made the active and inactive calls. How the source made its calls: active means hit-call score of the fitted dose curve at least 0.9, where 1 is the maximum; inactive means score below 0.9.
Outcome codes: label 1 (active), label 0 (inactive)

- Compound: "CCN(CC)CCO"
  Group Label: "label 0"
- Compound: "O=C1CCCO1"
  Group Label: "label 1"
- Compound: "N#CC(Br)(Br)C(N)=O"
  Group Label: "label 0"
- Compound: "CCCCOC(=O)c1ccccc1C(=O)OCc1ccccc1"
  Group Label: "label 0"
- Compound: "ClC1=C(Cl)C2(Cl)C3C(Cl)C=CC3C1(Cl)C2(Cl)Cl (configuration not stated)"
  Group Label: "label 0"
- Compound: "CN(C)C(=O)Nc1ccc(Cl)cc1"
  Group Label: "label 0"
- Compound: "ClC1=C(Cl)[C@]2(Cl)[C@H]3[C@H]([C@@H]4C=C[C@H]3C4)[C@@]1(Cl)C2(Cl)Cl"
  Group Label: "label 0"

====

Read-out: Glutathione S-Transferase (GSTA2), GSTA2 (gene 2939)
Method Notes: LTEA_HepaRG_GSTA2: Life Technologies and Expression Analysis (LTEA) Assay for Glutathione S-Transferase (GSTA2) using HepaRG (AID 2283497)
Measurement Context: mRNA level, 48 h; actives raise or lower the signal
Active and inactive are the calls of the source. The calls were made as follows: active = hit-call score of the fitted dose curve at least 0.9, where 1 is the maximum; inactive = score below 0.9.
Outcome codes: True for active, False for inactive

- Structure: "Clc1ccc(C(c2ccc(Cl)cc2)C(Cl)Cl)cc1"
  Group Label: "False"
- Structure: "CCCSC(=O)N(CCC)CCC"
  Group Label: "False"
- Structure: "Nc1ccc(Cl)cc1N"
  Group Label: "True"
- Structure: "CO[C@@H]1[C@H](OC(=O)NC(=O)CCl)CC[C@]2(CO2)[C@H]1[C@@]1(C)O[C@@H]1CC=C(C)C"
  Group Label: "False"
- Structure: "Oc1ccc2ccc3cccc4ccc1c2c34"
  Group Label: "False"
- Structure: "O=Cc1ccco1"
  Group Label: "False"
- Structure: "CC(C)N(Cc1ccccc1)C(=O)C(C)(C)C"
  Group Label: "False"

====

Read-out: Plasminogen activator inhibitor-1 (PAI1), SERPINE1 (gene 5054)
Method Notes: BSK_BE3C_PAI1: BioMAP Diversity Plus: BE3C Assay for Plasminogen activator inhibitor-1 (PAI1) Biomarker Activity (AID 2283037)
Measurement Context: primary human bronchial epithelial cells; actives raise or lower the signal
Active and inactive are the calls of the source. Rule for the calls: active = hit-call score of the fitted dose curve at least 0.9, where 1 is the maximum; inactive = score below 0.9.
Outcome codes: YES for active, NO for inactive

- Compound: "CC(C)(C)OOC(C)(C)CCC(C)(C)OOC(C)(C)C"
  Group Label: "NO"
- Compound: "c1ccc(NNc2ccccc2)cc1"
  Group Label: "NO"
- Compound: "Nc1ccc(Cl)cc1N"
  Group Label: "NO"
- Compound: "CCN(CC)CCO"
  Group Label: "NO"
- Compound: "CCCCCCCCCCCCCN1CC(C)OC(C)C1 (stereo not given)"
  Group Label: "NO"
- Compound: "OCCCBr"
  Group Label: "NO"
- Compound: "O=[N+]([O-])c1ccc(Oc2ccc(Cl)cc2Cl)cc1"
  Group Label: "NO"
- Compound: "Cc1ccc([N+](=O)[O-])cc1"
  Group Label: "NO"
- Compound: "c1ccc(N=Nc2ccccc2)cc1"
  Group Label: "NO"
- Compound: "O=[N+]([O-])C(Br)(CO)CO"
  Group Label: "NO"
- Compound: "N#CC(Br)(Br)C(N)=O"
  Group Label: "NO"
- Compound: "COC(=O)c1ccccc1N"
  Group Label: "NO"
- Compound: "CC(C)(O)c1cnn2c(-c3ccc(F)c(-c4c(F)cccc4C#N)c3)cnc2n1"
  Group Label: "YES"
- Compound: "O=C(Nc1ccccc1)c1ccccc1I"
  Group Label: "NO"
- Compound: "CCCCOC(=O)c1ccccc1C(=O)OCc1ccccc1"
  Group Label: "NO"
